molecular target: Apelin receptor (Homo sapiens) (UniProt P35414); experiment: potency against CXCR6 with APJ panel – cell-based, beta-arrestin, DiscoveRx, uHTS hits, dose response (AID 624129); details: CXCR6 beta-arrestin (DiscoveRx) antagonist cell assay, APJ, dose range 1, mean IC50 across replicates
OBSERVABLE: IC50 (µM)
Answers are plain numbers, in µM.

Batch request: IC50 for each of the following molecules.
1. Fc1ccc(NC(=S)Nc2nccs2)cc1
2. C=C1C(=O)[C@]23C[C@H]1CCC2[C@@]1(C)C(C[C@@H]3O)[C@](C)(C(=O)OC)CC[C@@H]1OC(C)=O (some centres undefined)

Reply:
13.7
21.3

###

molecular target: Beta-galactosidase (Escherichia coli); assay: potency against CXCR6 with APJ panel – cell-based, beta-arrestin, DiscoveRx, uHTS hits, dose response (AID 624129); conditions: CXCR6 beta-arrestin (DiscoveRx) antagonist cell assay, b-galactosidase, dose range 1
Active and inactive are the calls of the source. No rule for the calls is given here.
Hi there, use one of these labels in your reply, thanks! active, inactive

A selection of reference data follows.
COC(=O)c1ccc2c(c1)C(C)(C)C(/C=C/c1ccccc1O)=[N+]2C: active
COC(=O)[C@@H]1[C@@H](C#N)C2(c3ccccc3-c3ccccc32)N(c2ccc(Cl)cc2)N1C#N: inactive
COc1ccc(OC)c(/C=C/c2ccc3cccc(O)c3n2)c1: inactive
O=C(Nc1ccccc1Cl)/C(Cl)=C(\Cl)S(=O)c1ccccc1 (stereo unspecified): inactive
CCCC(=O)OCCNc1cc(Sc2nccn2C)c2nonc2c1[N+](=O)[O-]: inactive

Now examine the next entry.
Query: For CN(O)C(=S)c1ccccc1 , what call appears in the results of this test?
Reply: inactive

###

molecular target: C-C chemokine receptor type 6 (Homo sapiens) (UniProt P51684); assay: potency against CXCR6 with APJ panel – cell-based, beta-arrestin, DiscoveRx, uHTS hits, dose response (AID 624129); details: CXCR6 beta-arrestin (DiscoveRx) antagonist cell assay, CCR6, dose range 1, mean IC50 across replicates
Could you please report measured IC50 for the items listed next?
Numbers only, in µM.

Examples with their reported IC50 follow.
O=[N+]([O-])c1cc2oc3c(c2c(C=NCc2ccccc2)c1O)CCCC3: 39.8
CC(=O)OCCNc1cc(Sc2nc3ccccc3[nH]2)c2nonc2c1[N+](=O)[O-]: 5.34
O=C1C(Cc2ccccc2)Nc2ncnc(N3CCN(c4ccccc4)CC3)c2N1Cc1ccc(Cl)cc1 (stereo unspecified): 2.67
O=C(Nc1nnc(SCc2ccc(F)cc2)s1)c1ccccn1: 4.53
COc1ccc(C(=O)/C(=C\c2ccco2)N2C=CC=CC2=C(C#N)C#N)cc1: 3.72

Batch request: IC50 for each of the following compounds.
1. Cc1ccc2oc(/N=C(\N)NC(=O)C(C)(C)C)nc2c1
2. CCCCOc1ccc(C(=O)NNC(=S)NC(=O)CC)cc1

Reply:
12.3
8.35

Batch request: IC50 for each of the following compounds.
1. CCOc1ccc2nc(NC(=O)c3ccccn3)sc2c1
2. O=C1C(=C(c2ccccc2)N2CCOCC2)Cc2ccccc21
3. NC(=S)N/N=C/c1ncc(C(F)(F)F)cc1Cl

Reply:
8.78
8.89
6.7

###

molecular target: Apelin receptor (Homo sapiens); assay: potency against CXCR6 with APJ panel – cell-based, beta-arrestin, DiscoveRx, uHTS hits, dose response (AID 624129); details: CXCR6 beta-arrestin (DiscoveRx) antagonist cell assay, APJ, run 3, dose range 1
OBSERVABLE: IC50 (µM)
Answers are plain numbers, in µM.

Examples with their reported IC50 follow.
CCc1ccccc1OCC(=O)Nc1nc(-c2cccnc2)cs1: 17
C=C1C(=O)OC2C1CCC(C)=C1C(=O)C3OC3(C)C12 (stereo unspecified): 10.6

Kindly review the next compound as well.
Query: Look up IC50 of CCC1CCCCN1S(=O)(=O)c1ccc(NC(=O)c2nc(S(C)(=O)=O)ncc2Cl)cc1 (stereo unspecified) and report it.
Reply: 5.85
